Data provenance is paper PMC9599461.

Measured Stereoselectivity ClInt values are reported for all entries that follow.
- measurement-target: UniProtKB P23975
- measurement-notes: Stereoselective uptake into NET-overexpressing HEK293 cells
- condition-context: NET; ratio between enantiomers, given as for (S) or for 2
measurement-name: Stereoselectivity ClInt (fold)

compound: COc1cc(C(O)CN)ccc1O (single isomer, unassigned) [Normetanephrine-2, Normetanephrine]
observed-value: 1.28

compound: NCC(O)c1cccc(O)c1 (single isomer, unassigned) [Norphenylephrine-2, Norphenylephrine]
observed-value: 1.21

compound: NC[C@H](O)c1ccccc1 [(R)-Bisnorephedrine]
observed-value: 1.24

compound: C[C@@H]1NCCc2cc(O)c(O)cc21 [Salsolinol-2, Salsolinol]
observed-value: 1.19

compound: NC[C@@H](O)c1ccccc1 [(S)-Bisnorephedrine]
observed-value: 1.24

compound: C[C@@H]1NCCc2cc(O)c(O)cc21 [Salsolinol-1, Salsolinol]
observed-value: 1.19

----------
- measurement-target: NET (Homo sapiens, UniProt P23975)
- Sequence (P23975 whole entry): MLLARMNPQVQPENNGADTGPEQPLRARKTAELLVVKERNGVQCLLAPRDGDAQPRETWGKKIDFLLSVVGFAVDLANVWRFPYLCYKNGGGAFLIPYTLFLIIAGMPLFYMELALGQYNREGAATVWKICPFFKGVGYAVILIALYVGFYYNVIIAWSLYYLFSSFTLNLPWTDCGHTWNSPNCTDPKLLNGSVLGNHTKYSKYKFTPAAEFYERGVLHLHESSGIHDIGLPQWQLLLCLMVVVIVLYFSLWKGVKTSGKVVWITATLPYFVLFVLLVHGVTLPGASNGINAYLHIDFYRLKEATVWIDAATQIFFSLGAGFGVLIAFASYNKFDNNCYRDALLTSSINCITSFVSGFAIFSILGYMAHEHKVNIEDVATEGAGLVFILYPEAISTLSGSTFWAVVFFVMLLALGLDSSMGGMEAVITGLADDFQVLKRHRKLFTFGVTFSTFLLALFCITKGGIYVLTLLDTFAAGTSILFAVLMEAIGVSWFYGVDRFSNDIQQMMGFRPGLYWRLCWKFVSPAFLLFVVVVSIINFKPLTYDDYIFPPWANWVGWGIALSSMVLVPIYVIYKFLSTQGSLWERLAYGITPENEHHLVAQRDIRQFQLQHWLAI
- measurement-notes: Stereoselective uptake into NET-overexpressing HEK293 cells;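 note: intracellular enantiomers quantified in cell lysates by chiral HPLC-MS/MS after a 2 min substrate incubation, with uptake normalized to total cellular protein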
- condition-context: NET; quotient of vmax over Km

molecule: COc1cc(C(O)CN)ccc1O (single isomer, unassigned) [Normetanephrine-2, Normetanephrine]
Clint ± SEM: 3.47 mL × g Protein^−1 × min^−1
//
molecule: NC[C@@H](O)c1ccc(O)cc1 [(S)-Octopamine]
Clint ± SEM: 198 mL × g Protein^−1 × min^−1
//
molecule: NCC(O)c1cccc(O)c1 (single isomer, unassigned) [Norphenylephrine-1, Norphenylephrine]
Clint ± SEM: 189 mL × g Protein^−1 × min^−1
//
molecule: CNC[C@H](O)c1cccc(O)c1 [(R)-Phenylephrine]
Clint ± SEM: 75.5 mL × g Protein^−1 × min^−1
//
molecule: COc1cc(C(O)CN)ccc1O (single isomer, unassigned) [Normetanephrine-1, Normetanephrine]
Clint ± SEM: 2.71 mL × g Protein^−1 × min^−1
//
molecule: C[C@@H]1NCCc2cc(O)c(O)cc21 [Salsolinol-1, Salsolinol]
Clint ± SEM: 1.24 mL × g Protein^−1 × min^−1
//
molecule: NCC(O)c1cccc(O)c1 (single isomer, unassigned) [Norphenylephrine-2, Norphenylephrine]
Clint ± SEM: 230 mL × g Protein^−1 × min^−1
//
molecule: NC[C@H](O)c1ccc(O)cc1 [(R)-Octopamine]
Clint ± SEM: 166 mL × g Protein^−1 × min^−1
//
molecule: C[C@@H]1NCCc2cc(O)c(O)cc21 [Salsolinol-2, Salsolinol]
Clint ± SEM: 1.48 mL × g Protein^−1 × min^−1
//
molecule: CNC[C@H](O)c1ccc(O)cc1 [(R)-Synephrine]
Clint ± SEM: 37.3 mL × g Protein^−1 × min^−1
//
molecule: NC[C@@H](O)c1ccccc1 [(S)-Bisnorephedrine]
Clint ± SEM: 57.4 mL × g Protein^−1 × min^−1
//
molecule: CNC[C@@H](O)c1ccc(O)cc1 [(S)-Synephrine]
Clint ± SEM: 7.92 mL × g Protein^−1 × min^−1
//
molecule: CNC[C@@H](O)c1cccc(O)c1 [(S)-Phenylephrine]
Clint ± SEM: 52.3 mL × g Protein^−1 × min^−1
//
molecule: NC[C@H](O)c1ccc(O)c(O)c1 [(R)-Norepinephrine]
Clint ± SEM: 113.3 ± 47.6 mL × g Protein^−1 × min^−1
//
molecule: NC[C@H](O)c1ccccc1 [(R)-Bisnorephedrine]
Clint ± SEM: 46.1 mL × g Protein^−1 × min^−1
//
molecule: NC[C@@H](O)c1ccc(O)c(O)c1 [(S)-Norepinephrine]
Clint ± SEM: 118.7 ± 46.0 mL × g Protein^−1 × min^−1
